- Tested on: K562 (chronic myelogenous leukaemia)
- method-description: Effect of compounds on tumor cell lines (assay of Latham et al.), K562
- Type: cell-based
- measurement-context: K562 cells, 96 hours after treatment, 1 μM to 100 μM; read-out: K 562 potency (IC50)
pIC50: −log10 of the molar value.
Below is a list of entries, each paired with its recorded pIC50 value.
endpoint-name: pIC50

INSERT INTO results (molecule, target_desc, result) VALUES
  ('O=C(C(=Cc1ccc(Br)cc1)SCc1ccc(Cl)cc1)c1ccc(Br)cc1 [Example 214]', 'K562 (chronic myelogenous leukaemia)', '5.00 to 6.00'),
  ('O=C(C(=Cc1ccc(Br)cc1)SCc1ccccc1Cl)c1ccc(Cl)cc1 [Example 129]', 'K562 (chronic myelogenous leukaemia)', '5.00 to 6.00'),
  ('COc1ccccc1C=C(SCc1ccc(Cl)cc1)C(=O)c1ccc([N+](=O)[O-])cc1 [Example 200]', 'K562 (chronic myelogenous leukaemia)', '5.00 to 6.00'),
  ('Cc1ccc(C=C(SCc2ccc(Cl)cc2)C(=O)c2ccc(Br)cc2)s1 [Example 229]', 'K562 (chronic myelogenous leukaemia)', '4.00 to 4.30'),
  ('CC1=CC(=O)C(C)=C(C(C)(C)CC(=O)Oc2cc(C=C(SCc3ccc(Br)cc3)C(=O)c3ccc(Br)cc3)ccc2[N+](=O)[O-])C1=O [Example 307]', 'K562 (chronic myelogenous leukaemia)', '5.00 to 6.00'),
  ('Cc1cc(C)cc(C=C(SCc2ccc(Br)cc2)C(=O)c2ccc(Cl)cc2)c1 [Example 149]', 'K562 (chronic myelogenous leukaemia)', '4.60 to 5.00'),
  ('O=C(O)c1ccc(C(=O)/C(=C\c2ccc(Br)cc2)SCc2ccc(F)cc2)cc1 [Example 334]', 'K562 (chronic myelogenous leukaemia)', '< 4.00');
